# assayedSystem: MEK1 (Homo sapiens)
# Construct: purchased Millipore 14-420 (GST-MEK1); 14-703 (Cot1); host or cells: Cot1: insect cells (SF21)
# methodNotes: MEK1 activation kinase assay (Assay 2, HTRF; Cot1 phosphorylates GST-MEK1)
# Format: biochemical
# cond: IC50 in MEK1 activation kinase assay, representative example compounds

entrySmiles: CNS(=O)(=O)Nc1cccc(Oc2cc(F)cc(Nc3ccc(I)cc3F)c2C(N)=O)c1
IC50: < 1000 nM

---

# assayedSystem: MEK1 (Homo sapiens, UniProt Q02750)
# Construct: purchased Millipore 14-420 (GST-MEK1); 14-703 (Cot1); host or cells: Cot1: insect cells (SF21)
# Sequence (Q02750 whole entry): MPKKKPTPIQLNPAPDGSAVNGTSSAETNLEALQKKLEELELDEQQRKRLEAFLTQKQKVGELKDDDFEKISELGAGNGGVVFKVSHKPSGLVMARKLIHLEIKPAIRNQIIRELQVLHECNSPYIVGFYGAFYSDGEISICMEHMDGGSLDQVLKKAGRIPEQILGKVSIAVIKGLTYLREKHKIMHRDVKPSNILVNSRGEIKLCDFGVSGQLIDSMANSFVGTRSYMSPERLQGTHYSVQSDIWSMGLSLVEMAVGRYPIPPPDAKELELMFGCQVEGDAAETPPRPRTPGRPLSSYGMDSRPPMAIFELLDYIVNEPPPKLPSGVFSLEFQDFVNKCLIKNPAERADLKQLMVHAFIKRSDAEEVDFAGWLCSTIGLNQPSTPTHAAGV
# methodNotes: MEK1 activation kinase assay (Assay 2, HTRF; Cot1 phosphorylates GST-MEK1)
# Assay type: biochemical
# cond: mean values from 2 or more measurements; read-out: Assay 2 IC50 values (nanomolar) (MEK1 activation kinase assay) (values are mean values from 2 or more measurements)
Mark TRUE only when IC50 stays strictly below 60 nM. Values equal to the cut-off are FALSE.

molecule: CNS(=O)(=O)Nc1cccc(Oc2cc(F)cc(Nc3ccc(I)cc3F)c2C(N)=O)c1
assayedSystem: MEK1 (Homo sapiens, UniProt Q02750)
groupLabel: TRUE
--
molecule: NC(=O)c1c(Nc2ccc(I)cc2F)cc(F)cc1Oc1cccc(NC(=O)c2csnn2)c1
assayedSystem: MEK1 (Homo sapiens, UniProt Q02750)
groupLabel: FALSE
--
molecule: NC(=O)c1c(Nc2ccc(I)cc2F)cc(F)cc1Oc1cccc(NC(=O)c2ccoc2)c1
assayedSystem: MEK1 (Homo sapiens, UniProt Q02750)
groupLabel: FALSE
--
molecule: CC(O)(CO)CCOc1cc(F)cc(Nc2ccc(I)cc2F)c1C(N)=O (single isomer, unassigned) [Example 6.6]
assayedSystem: MEK1 (Homo sapiens, UniProt Q02750)
groupLabel: FALSE
--
molecule: CN(C)S(=O)(=O)N(C)c1cccc(Oc2cc(F)cc(Nc3ccc(I)cc3F)c2C(N)=O)c1
assayedSystem: MEK1 (Homo sapiens, UniProt Q02750)
groupLabel: TRUE
--
molecule: C[C@H](O)CNC(=O)c1c(Nc2ccc(I)cc2F)cc(F)cc1Oc1cccc(NS(=O)(=O)N(C)C)c1
assayedSystem: MEK1 (Homo sapiens, UniProt Q02750)
groupLabel: FALSE
--
molecule: NC(=O)c1c(Nc2ccc(I)cc2F)cc(F)cc1Oc1cccc(NC(=O)c2cn[nH]c2)c1
assayedSystem: MEK1 (Homo sapiens, UniProt Q02750)
groupLabel: FALSE
--
molecule: CC(C)(O)C(O)CCOc1cc(F)cc(Nc2ccc(I)cc2F)c1C(N)=O (centres unmarked) [Example 6.1]
assayedSystem: MEK1 (Homo sapiens, UniProt Q02750)
groupLabel: TRUE
--
molecule: NC(=O)c1cccc(Oc2cc(F)cc(Nc3ccc(I)cc3F)c2C(N)=O)c1
assayedSystem: MEK1 (Homo sapiens, UniProt Q02750)
groupLabel: TRUE
--
molecule: CC(=O)N1CCC[C@@H]1COc1cc(F)cc(Nc2ccc(I)cc2F)c1C(N)=O
assayedSystem: MEK1 (Homo sapiens, UniProt Q02750)
groupLabel: FALSE
--
molecule: NC(=O)c1c(Nc2ccc(I)cc2F)cc(F)cc1Oc1cccc(NS(=O)(=O)C2CC2)c1
assayedSystem: MEK1 (Homo sapiens, UniProt Q02750)
groupLabel: TRUE
--
molecule: CN(C)S(=O)(=O)Nc1cccc(Oc2cc(F)cc(Nc3ccc(I)cc3F)c2C(=O)NCCCO)c1
assayedSystem: MEK1 (Homo sapiens, UniProt Q02750)
groupLabel: FALSE
--
molecule: C#Cc1ccc(Nc2cc(F)cc(Oc3cccc(NS(=O)(=O)N(C)C)c3)c2C(N)=O)c(F)c1
assayedSystem: MEK1 (Homo sapiens, UniProt Q02750)
groupLabel: TRUE
--
molecule: NC(=O)c1c(Nc2ccc(I)cc2F)cc(F)cc1Oc1cccc(NS(=O)(=O)NCC(F)(F)F)c1
assayedSystem: MEK1 (Homo sapiens, UniProt Q02750)
groupLabel: TRUE

Source listed as patent US20110039819A1.
